EXPERIMENTAL SYSTEM: T1, PUF4 RNA-binding domain (Saccharomyces cerevisiae, UniProt P25339 537-888)
T1 sequence: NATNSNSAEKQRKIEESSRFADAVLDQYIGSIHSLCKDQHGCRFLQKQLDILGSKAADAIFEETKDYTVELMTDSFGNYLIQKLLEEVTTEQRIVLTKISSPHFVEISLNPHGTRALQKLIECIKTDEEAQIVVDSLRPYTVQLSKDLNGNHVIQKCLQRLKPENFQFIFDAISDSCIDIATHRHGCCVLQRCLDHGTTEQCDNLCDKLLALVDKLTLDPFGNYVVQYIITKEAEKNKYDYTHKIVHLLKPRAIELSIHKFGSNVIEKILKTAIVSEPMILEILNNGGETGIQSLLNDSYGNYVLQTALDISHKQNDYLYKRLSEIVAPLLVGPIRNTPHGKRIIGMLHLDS
ASSAY NAME: Mg; RNA-MaP; 20 mM Na-HEPES pH 7.4, 30 mM KOAc, 0.75 mM MgCl2, 0.1% Tween-20, 5% glycerol, 0.1 mg/mL BSA, 2 mM DTT; 25 C; 0.0125-409.6 nM protein
EXPERIMENTAL PARAMETERS: tags: N-His6-TEV cleaved; C-SNAP kept, Cy3B-labelled; label: tethered on chip by stalled RNA polymerase
pKd: −log10 of the molar value.
MEASUREMENT TYPE: pKd

Id_ii_S4_P3E.3_K3.2_C3.2_[C-2G]_H3.2_A3.1_F3.1_T3.2_[A10T] (ssRNA) RNA: UUUGACAACUGAUCGUUCUUUCUGUUAUAUAUAUUUUCUUUCUCGAUCAGUUGUCUUU : 7.77
Ie_S4_P4E.1_K4.1_C4.1_H4.1_A4.1_F4.1_[+9CC]_T4.1 (ssRNA) RNA: UUUGACAACUGAUCGUUCUUUCUUGUAUAUUACCUUCUUUCUCGAUCAGUUGUCUUU : 9.22
UCUCUUUGUAGCUGCUCUCUU (ssRNA) [Ic_S1_P4E.1_K4.1_C4.1_H4.1_A4.1_[T5G]_[A6C]_F4.1_[T8G]_[A9C]_T4.1] : 5.68
Ic_S4_P4E.1_K4.1_C4.1_H4.1_A4.1_[T5G]_[A6T]_[T7A]_F4.1_[A9G]_T4.1 (ssRNA) RNA: UUUGACAACUGAUCGUUCUUUCUUGUAGUAUGUUCUUUCUCGAUCAGUUGUCUUU : 7.43
ACAAACAUACACUAUUACCACAAAC (ssRNA) [Id_ii_S3_P4E.4_K4.3_C4.2_[C-2A]_H4.3_A4.1_F4.1_T4.2_[G10C]_[T11C]] : 6.13
UCUCUUUGUAGCACUUCUCUU (ssRNA) [Ic_S1_P4E.1_K4.1_C4.1_H4.1_A4.1_[T5G]_[A6C]_[T7A]_F4.1_[T8C]_[A9T]_T4.1] : 6.02
Id_iii_S2_P3E.8_K3.4_C3.3_[C-2A]_H3.1_A3.2_F3.1_T3.2 (ssRNA) RNA: UUUGAUUAAUAUGAUAUCGUUCUUUCUUAUUGUAAAUAUAUUCUUUCUCGAUAUCAUAUUAAUCUUU : 7.58
Id_ii_S2_P4E.2_K4.1_C4.2_[C-2A]_[T-1C]_H4.1_A4.1_F4.1_T4.2_[G10A]_[T11A] (ssRNA) RNA: UUUGAUUAAUAUGAUAUCGUUCUUUCUACUGUAUAUUAAAUUCUUUCUCGAUAUCAUAUUAAUCUUU : 9.15
UCUCUUUGUACUUAUUCUCUU (ssRNA) [Ic_S1_P4E.1_K4.1_C4.1_H4.1_A4.1_[T5C]_[A6T]_F4.1_[T8A]_[A9T]_T4.1] : 7.47
Id_ii_S4_P3E.2_K3.1_C3.2_[T-1C]_H3.1_A3.1_F3.1_T3.2_[T9G]_[A10C] (ssRNA) RNA: UUUGACAACUGAUCGUUCUUUCUCCUGUAUAUAGCUUCUUUCUCGAUCAGUUGUCUUU : 8.70
Id_ii_S2_P4E.3_K4.2_C4.2_[C-2G]_[T-1C]_H4.2_A4.1_F4.1_T4.2_[G10T]_[T11G] (ssRNA) RNA: UUUGAUUAAUAUGAUAUCGUUCUUUCUGCUAUAUAUUAUGUUCUUUCUCGAUAUCAUAUUAAUCUUU : 7.54
Id_ii_S2_P4E.3_K4.2_C4.2_[C-2A]_H4.2_A4.1_F4.1_T4.2_[G10T]_[T11G] (ssRNA) RNA: UUUGAUUAAUAUGAUAUCGUUCUUUCUAUUAUAUAUUAUGUUCUUUCUCGAUAUCAUAUUAAUCUUU : 7.58
UCUCUUUGUUAAUUAUCUCUU (ssRNA) [Ib_S1_P4E.1_K4.1_C4.1_H4.1_[A4T]_A4.1_[T5A]_F4.1_T4.1] : 7.36
Id_ii_S4_P3E.3_K3.2_C3.2_[C-2G]_[T-1C]_H3.2_A3.1_F3.1_T3.2_[T9A]_[A10C] (ssRNA) RNA: UUUGACAACUGAUCGUUCUUUCUGCUAUAUAUAACUUCUUUCUCGAUCAGUUGUCUUU : 5.92
UCUCUUUGUACCUUUUUCUCUU (ssRNA) [Ic_S1_P5E.1_K5.1_C5.1_H5.1_A5.1_[T5C]_[T6C]_[A7T]_F5.1_[A10T]_T5.1] : 7.57
UCUCUUUUUGUAUAUUAACUCUCUU (ssRNA) [Id_ii_S1_P4E.2_K4.1_C4.2_[C-2T]_H4.1_A4.1_F4.1_T4.2_[G10A]_[T11C]] : 8.96
UCUCUUUGUAUAUUUCCUAUCUCUU (ssRNA) [Ie_S1_P4E.1_K4.1_C4.1_H4.1_A4.1_[+7TTCC]_F4.1_T4.1] : 8.16
Ie_S2_P3E.2_K3.1_C3.2_[+-2CCCTT]_H3.1_A3.1_F3.1_T3.2 (ssRNA) RNA: UUUGAUUAAUAUGAUAUCGUUCUUUCUCCCCUUUUGUAUAUAUAUUCUUUCUCGAUAUCAUAUUAAUCUUU : 9.10
UCUCUUUUUAUAUAUUAUAUCUCUU (ssRNA) [Id_ii_S1_P4E.3_K4.2_C4.2_[C-2T]_H4.2_A4.1_F4.1_T4.2_[G10T]_[T11A]] : 7.65
UCUCUUCUACACUAUAAUUCUCUU (ssRNA) [Id_ii_S1_P3E.4_K3.3_C3.2_H3.3_A3.1_F3.1_T3.2_[T9A]_[A10T]] : 5.73
Ic_S2_P4E.1_K4.1_C4.1_H4.1_A4.1_[T5A]_[A6C]_[T7C]_F4.1_[A9C]_T4.1 (ssRNA) RNA: UUUGAUUAAUAUGAUAUCGUUCUUUCUUGUAACCUCUUCUUUCUCGAUAUCAUAUUAAUCUUU : 7.35
Ie_S2_P4E.1_K4.1_C4.1_H4.1_A4.1_[+7CCCT]_F4.1_T4.1 (ssRNA) RNA: UUUGAUUAAUAUGAUAUCGUUCUUUCUUGUAUAUCCCUUAUUCUUUCUCGAUAUCAUAUUAAUCUUU : 8.00

// data source = paper PMC9352680
